Test: Oral bioavailability in dog
Assay type: ADME, organism-based, Canis lupus familiaris
Conditions: in vivo
endpoint.label: bioavailability (%)

>>> reported("C=CC(=O)N1C[C@H](Nc2ncnc3[nH]ccc23)CC[C@@H]1C [RITLECITINIB]")
109

----------
Experiment: Stability in human whole blood assessed as GST-mediated clearance by measuring half-life at 1 uM by LC-MS/MS analysis
Format: ADME
This listing pairs compounds with measured half-life at 1 µM.
endpoint.label: half-life at 1 µM

>>> reported("C=CC(=O)N1CCC[C@@H](Nc2ncnc3[nH]ccc23)[C@H]1C (racemic)")
"> 6 h"
>>> reported("C=CC(=O)N1C[C@@H](C)C[C@@H](Nc2ncnc3[nH]ccc23)C1 (single isomer, unassigned)")
"> 4.17 h"
>>> reported("C=CC(=O)N1CC[C@H](C)[C@@H](Nc2ncnc3[nH]ccc23)C1")
"> 5 h"
